molecular target: Gamma-secretase; test: Inhibition of gamma-secretase (unknown origin) expressed in HEK293 cells co-expressing […] mutant assessed as reduction of amyloid beta-40 production; type: cell-based, Homo sapiens
Decision: IC50 beneath 50 nM gives true (1); IC50 meeting or exceeding 50 nM gives false (0).

mol=CC[C@@H]1C[C@@H]2[C@@H](CC[C@@]3(S(=O)(=O)c4ccc(C#N)cc4)c4c(F)ccc(F)c4OC[C@@H]23)NS1(=O)=O label_value="true (1)"
mol=O=C1C=CC(F)(F)C2=C1[C@]1(S(=O)(=O)c3ccc(C(F)(F)F)cc3)CC[C@@H](NS(=O)(=O)C3CC3)C[C@@H]1CO2 label_value="false (0)"
mol=CS(=O)(=O)CC[C@@H]1OCC[C@@]2(S(=O)(=O)c3ccc(C(F)(F)F)cc3)c3c(F)ccc(F)c3OC[C@@H]12 label_value="true (1)"
mol=CS(=O)(=O)CC[C@@H]1CCC[C@@]2(S(=O)(=O)c3ccc(C(F)(F)F)cc3)C3=C(OC[C@@H]12)C(F)(F)C=CC3=O label_value="false (0)"
mol=CC[C@@H]1C[C@@H]2[C@@H](CC[C@@]3(S(=O)(=O)c4ccc(C(F)(F)F)cc4)C4=C(OC[C@@H]23)C(F)(F)C=CC4=O)NS1(=O)=O label_value="true (1)"
mol=CS(=O)(=O)CC[C@@H]1OCC[C@@]2(S(=O)(=O)c3ccc(Cl)cc3)c3c(F)ccc(F)c3OC[C@@H]12 label_value="true (1)"
mol=CS(=O)(=O)CC[C@@H]1OCC[C@@]2(S(=O)(=O)c3ccc(Cl)cc3)C3=C(OC[C@@H]12)C(F)(F)C=CC3=O label_value="true (1)"
mol=O=S(=O)(NC[C@@H]1CCC[C@@]2(S(=O)(=O)c3ccc(C(F)(F)F)cc3)c3c(F)ccc(F)c3OC[C@@H]12)C(F)(F)F label_value="false (0)"
mol=CS(=O)(=O)CC[C@@H]1OCC[C@@]2(S(=O)(=O)c3ccc(C#N)cc3)c3c(F)ccc(F)c3OC[C@@H]12 label_value="true (1)"
